# literature pull: Serine/threonine-protein kinase pim-2 (Homo sapiens, UniProt Q9P1W9) log10 of IC50
measuredMetric: log10 of IC50 (log10 of the value in nM)

# compoundStructure, log10 of IC50
measured = [
    ("CN(C)CCCOc1cncc(-c2ccc3[nH]cc(-c4ccnc(N)n4)c3c2)n1", 2.73),
    ("COc1ncc2cc1NS(=O)(=O)c1ccc(F)c(c1)C(=O)NCC1=CC=C(S1)c1ncnc3c1SC2=C3C", 0.91),
    ("Nc1ccc(-c2c[nH]c3ccc(-c4cncc(N5CCNCC5)n4)cc23)c(F)n1", 1.79),
    ("CN(C)CCNc1cncc(-c2ccc3[nH]cc(-c4ccccc4F)c3c2)n1", 2.57),
    ("C/C1=C/C[C@H]2CNC(=O)c3cc([nH]c32)-c2cccc3nc(C)c(nc23)NC1", -0.70),
    ("FC(F)(F)c1ccc(-c2c[nH]c3ccc(-c4cncc(N5CCNCC5)n4)cc23)cc1", 3.33),
    ("NC(=O)c1cc(Cl)c2c(Cl)c(C3CC3)n([C@H]3CCCNC3)c2n1", 0.78),
]

====

pIC50: −log10 of the molar value.
# literature pull: Serine/threonine-protein kinase pim-2 (Homo sapiens, UniProt Q9P1W9) pIC50
Tick y if pIC50 is 6 or greater. Tick n if pIC50 is less than 6.

# compound, discreteLabel
rows = [
    ("CC(C)(O)C#Cc1c(Cl)c2c(Cl)cc(C(N)=O)nc2n1[C@H]1CCCNC1", "y"),
    ("CN(C)CCNc1cncc(-c2ccc3[nH]cc(-c4ccnc(N)n4)c3c2)n1", "y"),
    ("CN(C)CCNc1cncc(-c2ccc3[nH]cc(-c4ccc(C#N)cc4)c3c2)n1", "n"),
    ("CN(C)CCOc1cncc(-c2ccc3[nH]cc(-c4ccc(C(F)(F)F)cc4)c3c2)n1", "n"),
    ("Nc1ccc(-c2ccc3c(-c4ccc(N5CCNCC5)cc4)n[nH]c3n2)cn1", "n"),
    ("COc1cc(Br)cc2[nH]cc(-c3cnc(-c4ccc(Br)[nH]4)o3)c12", "n"),
    ("NC(=O)c1cc(Cl)c2c(Cl)c(I)n(CC3CCNCC3)c2n1", "y"),
    ("CN(C)CCOc1cncc(-c2ccc3[nH]cc(-c4ccnc(N)n4)c3c2)n1", "y"),
    ("FC(F)(F)c1ccc(-c2c[nH]c3ccc(-c4cncc(OC5CCNCC5)n4)cc23)cc1", "n"),
    ("NC(=O)c1cc(Cl)c2c(Cl)c(C#CC3CCCO3)n([C@H]3CCCNC3)c2n1 (stereo in doubt; 20a)", "y"),
    ("NC(=O)c1cc(Cl)c2c(Cl)c(C#CC3COCCO3)n([C@H]3CCCNC3)c2n1 (stereo in doubt; 22a)", "y"),
    ("CC(=O)c1ccc(F)c(-c2c[nH]c3ccc(-c4cncc(NCCN(C)C)n4)cc23)c1", "y"),
    ("CCN1CCCC1CNc1ccn2ncc(-c3ccc4ccccc4c3)c2n1 (centres undefined)", "n"),
    ("NC(=O)c1cc(Cl)c2c(Cl)c(C#CCN3CCCC3=O)n([C@H]3CCCNC3)c2n1", "y"),
    ("COc1ccc2c(Oc3ccc(NC(=O)c4c(C)n(CC(C)(C)O)n(-c5ccccc5)c4=O)nc3)ccnc2c1", "n"),
    ("Cc1nc2cccc3c2nc1N[C@H](C)/C=C\\C[C@H]1CNC(=O)c2cc-3[nH]c21", "y"),
    ("OCCc1cncc(-c2ccc3[nH]cc(-c4ccccc4F)c3c2)n1", "n"),
    ("NC(=O)c1cc(Cl)c2c(Cl)c(C#CC3CCOCC3)n([C@H]3CCCNC3)c2n1", "y"),
    ("O=C(O)c1cc2cc(-c3cncc(NC4CCNCC4)n3)ccc2o1", "y"),
    ("COCC(C)(C)C#Cc1c(Cl)c2c(Cl)cc(C(N)=O)nc2n1[C@H]1CCCNC1", "y"),
    ("COCC1CC1c1c(Cl)c2c(Cl)cc(C(N)=O)nc2n1C1CCCNC1 (centres undefined)", "y"),
    ("NC(=O)c1cc(Cl)c2c(Cl)c(I)n(C3CCCC(N)C3)c2n1 (racemic)", "y"),
    ("COc1cc(Br)cc2[nH]c(I)c(-c3cnc(-c4ccc[nH]4)o3)c12", "n"),
    ("C[C@@H]1CCC(N2CC[C@]3(CN(C(=O)c4cc5ccccc5[nH]4)c4ccccc43)C2)CN1 (some centres undefined)", "n"),
    ("COc1ccc2c(c1CN1CCNCC1)O/C(=C\\c1n[nH]c3ccccc13)C2=O", "n"),
    ("Cn1cc(-c2ccc3oc(C(=O)O)cc3c2)cn1", "n"),
    ("CN1CCOc2c(N3CCC(N(C)C)CC3)nn3c(-c4cccc(OC(F)(F)F)c4)nnc3c21", "n"),
    ("N[C@H]1C[C@@H](O)CN(c2ccncc2Nc2cccc3ccc(-c4c(F)cccc4F)nc23)C1", "y"),
    ("CCCCNc1nc2c(-c3cc4c([nH]3)CCNC4=O)cccc2nc1C", "y"),
    ("CN(C)Cc1ccc(-c2c(-c3ccc(N4CCNCC4)cc3)n(C)c3nc(C(N)=O)cc(Cl)c23)cc1", "n"),
    ("Fc1ccccc1-c1c[nH]c2ccc(-c3cncc(N4CCCNCC4)n3)cc12", "y"),
    ("Cn1c(-c2ccc(N3CCNCC3)cc2)c(-c2ccc(CO)cc2)c2c(Cl)ccnc21", "n"),
    ("c1ccc(-c2ccc3c(-c4ccc(N5CCNCC5)cc4)n[nH]c3n2)cc1", "n"),
    ("Oc1ccc(-c2ccc3c(-c4ccc(N5CCNCC5)cc4)c[nH]c3c2)cc1", "y"),
    ("CN(C)CCCNc1cncc(-c2ccc3[nH]cc(-c4ccnc(N)n4)c3c2)n1", "y"),
]

====

# literature pull: Serine/threonine-protein kinase pim-2 (Homo sapiens) IC50
So basically: is IC50 under 10 nM? Then Condition met. Not under? Then Condition not met.

# compound, discreteLabel
rows = [
    ("CN(C)CCN(C)c1cncc(-c2ccc3[nH]cc(-c4ccnc(N)n4)c3c2)n1", "Condition not met"),
    ("Cc1nc2cccc3c2nc1NC[C@H](C)CC[C@H]1CNC(=O)c2cc-3[nH]c21", "Condition met"),
    ("COc1cc2c(Oc3ccc(-c4cnc(Cc5ccccc5)n(C)c4=O)cc3F)ccnc2cc1OCCCN1CCOCC1", "Condition not met"),
    ("COc1cc(Br)cc2[nH]cc(-c3cnc(-c4ccc[nH]4)o3)c12", "Condition not met"),
    ("CN1CCN(C[C@@H](NC(=O)C[C@H]2CNC(=O)c3cc(-c4cccc(F)c4)cn32)C2CCCCC2)CC1", "Condition not met"),
    ("NC(=O)c1cc(Cl)c2c(Cl)c(C#CCO)n([C@H]3CCCNC3)c2n1", "Condition not met"),
    ("Cc1nc2cccc3c2nc1N[C@H](C)/C=C/C[C@H]1CNC(=O)c2cc-3[nH]c21", "Condition met"),
    ("Cc1nc2cccc3c2nc1NC/C=C\\C[C@@H]1CNC(=O)c2cc-3[nH]c21", "Condition met"),
    ("NC(=O)c1cc(Cl)c2c(Cl)c(-c3ccccc3)n(C3CCCNC3)c2n1 (centres undefined)", "Condition not met"),
]

====

# literature pull: Serine/threonine-protein kinase pim-2 (Homo sapiens, UniProt Q9P1W9) IC50
So basically: is IC50 under 500 nM? Then MET. Not under? Then NOT MET.

# compound, discreteLabel
data = [
    ("Cc1cn([C@@H](C)[C@]2(F)CCNC2)c2nc(C(N)=O)cc(Cl)c12 (stereo in doubt)", "MET"),
    ("C[C@@H]1CCC(N2CC[C@]3(CN(C(=O)c4cc5ccc(F)cc5[nH]4)c4ccccc43)C2)CN1 (stereo partly specified)", "NOT MET"),
    ("CCN(CC)CCOc1cncc(-c2ccc3[nH]cc(-c4ccnc(N)n4)c3c2)n1", "NOT MET"),
    ("CN(C)CCNc1cncc(-c2ccc3[nH]cc(-c4ccc(N)cc4)c3c2)n1", "MET"),
    ("C[C@@H](CN1CCN(C)CC1)NC(=O)C[C@H]1CNC(=O)c2cc(-c3cccc(Cl)c3)cn21", "NOT MET"),
    ("O=C(O)c1cc2cc(-c3cnn(C4CCNCC4)c3)ccc2o1", "NOT MET"),
    ("NCCNc1cncc(-c2ccc3[nH]cc(-c4ccccc4F)c3c2)n1", "MET"),
    ("CCOc1cncc(-c2ccc3[nH]cc(-c4ccccc4)c3c2)n1", "NOT MET"),
    ("Cn1c(I)c(Cl)c2c(Cl)cc(C(N)=O)nc21", "NOT MET"),
    ("N[C@H]1CC[C@H](Nc2cncc(-c3ccc4oc(C(=O)O)cc4c3)n2)CC1", "MET"),
    ("CN(C)CCNc1cncc(-c2ccc3[nH]cc(-c4ccc(F)c(C(F)(F)F)c4)c3c2)n1", "NOT MET"),
    ("NC(=O)c1cc(Cl)c2c(Cl)c(I)n(C3CNC3)c2n1", "NOT MET"),
    ("Oc1cccc(Nc2ccnc3[nH]c4ccccc4c23)c1", "NOT MET"),
    ("NCCNc1ccn2ncc(-c3ccc4cn[nH]c4c3)c2n1", "MET"),
    ("NC(=O)c1cc(Cl)c2c(Cl)c(I)n(C3CCC(O)CC3)c2n1 (stereo unspecified)", "MET"),
    ("Cc1nc2cccc3c2nc1NC[C@@H](C)CC[C@H]1CNC(=O)c2cc-3[nH]c21", "MET"),
    ("NC(=O)c1cc(Cl)c2c(Cl)c(I)n(C3CCCC(O)C3)c2n1 (racemic)", "MET"),
    ("NC(=O)c1cc(Cl)c2c(Cl)c(C#CC3CNCCO3)n([C@H]3CCCNC3)c2n1 (stereo in doubt; 29a)", "MET"),
    ("CCCNc1nc2c(-c3cc4c([nH]3)CCNC4=O)cccc2nc1C", "MET"),
    ("NC(=O)c1cc(Cl)c2c(Cl)c(I)n(C3CCCNC3)c2n1 (racemic)", "MET"),
    ("NCCNc1ccn2ncc(-c3ccc4ccccc4c3)c2n1", "MET"),
]
